assayed.target: Recombinant STAT6 protein (STAT6(W123-T658)) (Homo sapiens, UniProt P42226)
Construct: STAT6(W123-T658)
Sequence (P42226 123-658, species assumed): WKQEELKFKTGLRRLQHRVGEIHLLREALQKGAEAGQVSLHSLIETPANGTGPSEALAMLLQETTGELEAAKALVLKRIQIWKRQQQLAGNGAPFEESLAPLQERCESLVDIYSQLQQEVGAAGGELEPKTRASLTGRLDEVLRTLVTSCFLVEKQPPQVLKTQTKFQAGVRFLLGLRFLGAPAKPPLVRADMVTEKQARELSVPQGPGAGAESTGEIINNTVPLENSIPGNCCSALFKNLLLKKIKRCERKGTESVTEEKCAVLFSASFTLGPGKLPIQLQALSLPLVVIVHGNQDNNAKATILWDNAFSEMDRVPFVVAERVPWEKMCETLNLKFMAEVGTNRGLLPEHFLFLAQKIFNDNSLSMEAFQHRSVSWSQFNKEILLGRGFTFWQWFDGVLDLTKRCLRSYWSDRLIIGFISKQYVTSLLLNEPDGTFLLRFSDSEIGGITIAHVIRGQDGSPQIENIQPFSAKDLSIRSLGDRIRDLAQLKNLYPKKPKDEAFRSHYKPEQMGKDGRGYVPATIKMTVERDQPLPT
experimental.protocol: STAT6 Fluorescence Polarization (FP) Assay
condition.context: STAT6(W123-T658) 250 nM, probe 5-FAM-ApYKPFQDLI-NH2 2 nM, 45-minute incubation
Description: STAT6 Fluorescence Polarization (FP) Assay An FP assay was developed to determine IC50 values for test substances. […] Reaction components were mixed, and FP was measured after 45-minute incubation at room temperature using a Tecan Spark multimode plate reader. FP signal (mP) was plotted against the log concentration of the test substances and IC50 values were calculated by nonlinear regression analysis using GraphPad Prism software. […]
parameter: IC50

Batch lookup, IC50 per entry.
1. CC12CC1C[C@H](NC(=O)c1cc3cc(C(F)(F)P(=O)(O)O)ccc3s1)C(=O)N1[C@H](CC[C@H]1C(=O)N1CC(c3cccnc3)C1)C2 (stereo in doubt) [Example 231]
2. O=C(N[C@H]1C[C@@H]2C[C@@H]2C[C@H]2CC[C@@H](C(=O)Nc3ccc(-c4ccccc4)cc3)N2C1=O)c1cc2cc(C(F)(F)P(=O)(O)O)ccc2s1 [Compound 32]
3. O=C(N[C@H]1C[C@@H]2C[C@@H]2C[C@H]2CC[C@@H](C(=O)N3CCOc4ccccc43)N2C1=O)c1cc2cc(C(F)P(=O)(O)O)ccc2s1 (stereo partly drawn) [Example 372]

3 to 30 µM
0.3 to 3 µM
3 to 30 µM

---

assayed.target: Recombinant STAT3 protein (STAT3(G127-I722)) (Homo sapiens)
Construct: STAT3(G127-I722)
experimental.protocol: STAT3 Fluorescence Polarization (FP) Assay
condition.context: STAT3(G127-I722) 25 nM, probe 5-FAM-GpYLPQTV-NH2 2 nM, 45-minute incubation
parameter: IC50

Some compounds with known IC50 results, for comparison:
* O=C(N[C@H]1C[C@@H]2C[C@@H]2C[C@H]2CC[C@@H](C(=O)Nc3ccc(-c4ccccc4)cc3)N2C1=O)c1cc2cc(C(F)(F)P(=O)(O)O)ccc2s1 [Example 3] | 0.1 to 1 µM
* O=C(N[C@H]1C[C@@H]2C[C@@H]2C[C@H]2CC[C@@H](C(=O)N3CC(c4cc[nH]n4)C3)N2C1=O)c1cc2cc(C(F)(F)P(=O)(O)O)ccc2s1 | < 0.1 µM
* Cc1noc(C2CN(C(=O)[C@@H]3CC[C@@H]4C[C@H]5C[C@H]5C[C@H](NC(=O)c5cc6cc(C(F)P(=O)(O)O)ccc6s5)C(=O)N43)C2)n1 (some centres unmarked) | 0.1 to 1 µM
* O=C(N[C@H]1C[C@@H]2C[C@@H]2C[C@H]2CC[C@@H](C(=O)N[C@H]3CN(c4nc[nH]n4)C[C@@H]3F)N2C1=O)c1cc2cc(C(F)P(=O)(O)O)ccc2s1 (some centres unmarked) | 0.1 to 1 µM

Entry O=C(N[C@H]1C[C@@H]2C[C@@H]2C[C@H]2CC[C@@H](C(=O)N3CCCOc4ccccc43)N2C1=O)c1cc2cc(C(F)P(=O)(O)O)ccc2s1 (some centres unmarked) has what IC50? 1 to 10 µM

---

For each record, write down the corresponding IC50.
assayed.target: Recombinant STAT3 protein (STAT3(G127-I722)) (Homo sapiens, UniProt P40763)
Construct: STAT3(G127-I722)
Sequence (P40763 127-722, species assumed): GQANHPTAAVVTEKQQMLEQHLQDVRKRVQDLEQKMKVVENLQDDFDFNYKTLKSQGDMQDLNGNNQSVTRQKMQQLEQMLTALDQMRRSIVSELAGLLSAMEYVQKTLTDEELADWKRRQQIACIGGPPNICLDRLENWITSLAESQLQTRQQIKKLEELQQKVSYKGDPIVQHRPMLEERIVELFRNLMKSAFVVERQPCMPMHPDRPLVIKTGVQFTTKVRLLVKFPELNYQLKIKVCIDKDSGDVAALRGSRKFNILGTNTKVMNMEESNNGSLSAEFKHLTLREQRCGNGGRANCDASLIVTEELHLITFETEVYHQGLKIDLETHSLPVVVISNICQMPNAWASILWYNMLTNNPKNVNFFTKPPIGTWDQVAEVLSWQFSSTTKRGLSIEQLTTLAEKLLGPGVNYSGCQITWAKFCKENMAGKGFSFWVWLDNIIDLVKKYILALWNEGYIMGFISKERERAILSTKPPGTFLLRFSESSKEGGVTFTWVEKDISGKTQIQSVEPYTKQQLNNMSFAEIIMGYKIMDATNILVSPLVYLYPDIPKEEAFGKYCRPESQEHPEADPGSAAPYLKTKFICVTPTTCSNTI
experimental.protocol: STAT3 Fluorescence Polarization (FP) Assay
Assay type: binding
condition.context: STAT3(G127-I722) 25 nM, probe 5-FAM-GpYLPQTV-NH2 2 nM, 45-minute incubation
Experimental: STAT3 Fluorescence Polarization (FP) Assay An FP assay was developed to determine IC50 values for test substances. […] Reaction components were mixed, and FP was measured after 45-minute incubation at room temperature using a Tecan Spark multimode plate reader. FP signal (mP) was plotted against the log concentration of the test substances and IC50 values were calculated by nonlinear regression analysis using GraphPad Prism software. […]

* O=C(N[C@H]1C[C@@H]2C[C@@H]2C[C@H]2CC[C@@H](C(=O)N3CC(Oc4ccccn4)C3)N2C1=O)c1cc2cc(CP(=O)(O)O)ccc2s1 | 100 to 1000 nM
* CCc1ccncc1C1CN(C(=O)[C@@H]2CC[C@@H]3C[C@H]4C[C@H]4C[C@H](NC(=O)c4cc5cc(CP(=O)(O)O)ccc5s4)C(=O)N32)C1 | < 100 nM
* Cn1cnnc1C1CN(C(=O)[C@@H]2CC[C@@H]3C[C@@H]4C[C@@H]4C[C@H](NC(=O)c4cc5cc(C(F)P(=O)(O)O)ccc5s4)C(=O)N32)C1 (some centres unmarked) | < 100 nM
* O=C(N[C@H]1C[C@@H]2C[C@@H]2C[C@H]2CC[C@@H](C(=O)N3CC(c4cccnc4)C3)N2C1=O)c1cc2cc(C(F)(F)P(=O)(O)O)ccc2s1 [Compound 36] | < 100 nM

// moving on: another record for IC50
API: value(readout=IC50, system=Recombinant STAT3 protein (STAT3(G127-I722)) (Homo sapiens, UniProt P40763)) for record COc1ccncc1C1CN(C(=O)[C@@H]2CC[C@@H]3C[C@H]4C[C@H]4C[C@H](NC(=O)c4cc5cc(C(F)P(=O)(O)O)ccc5s4)C(=O)N32)C1 (some centres unmarked) < 100 nM

---

assayed.target: Recombinant STAT3 protein (STAT3(G127-I722)) (Homo sapiens, UniProt P40763)
Construct: STAT3(G127-I722)
experimental.protocol: STAT3 Fluorescence Polarization (FP) Assay
condition.context: STAT3(G127-I722) 25 nM, probe 5-FAM-GpYLPQTV-NH2 2 nM, 45-minute incubation
For each record, write down the corresponding IC50.

- O=C(N[C@H]1C[C@H]2C[C@H]2C[C@H]2CC[C@@H](C(=O)N[C@H]3CN(c4cccnc4)C[C@H]3F)N2C1=O)c1cc2cc(C(F)(F)P(=O)(O)O)ccc2s1 [Compound 129]: < 0.1 µM
- O=C(N[C@H]1C[C@@H]2C[C@@H]2C[C@H]2CC[C@@H](C(=O)N3CC[C@H](N4CCOCC4)C3)N2C1=O)c1cc2cc(C(F)(F)P(=O)(O)O)ccc2s1 [Compound 17]: 0.1 to 1 µM

// moving on: another record for IC50
Entry O=C(N[C@H]1C[C@@H]2C[C@@H]2C[C@H]2CC[C@@H](C(=O)N3CCOc4cccnc43)N2C1=O)c1cc2cc(C(F)P(=O)(O)O)ccc2s1 (stereo partly drawn) [Example 385] has what IC50? 1 to 10 µM

---

For each record, write down the corresponding pIC50.
assayed.target: Recombinant STAT3 protein (STAT3(G127-I722)) (Homo sapiens)
Construct: STAT3(G127-I722)
experimental.protocol: STAT3 Fluorescence Polarization (FP) Assay
condition.context: STAT3(G127-I722) 25 nM, probe 5-FAM-GpYLPQTV-NH2 2 nM, 45-minute incubation
pIC50: −log10 of the molar value.

Some compounds with known pIC50 results, for comparison:
- Cc1ccncc1C1CN(C(=O)[C@@H]2CC[C@@H]3C[C@H]4C[C@H]4C[C@H](NC(=O)c4cc5cc(C(F)P(=O)(O)O)ccc5s4)C(=O)N32)C1 (some centres unmarked): > 7.00
- O=C(N[C@H]1C[C@@H]2C[C@@H]2C[C@H]2CC[C@@H](C(=O)N3CC(c4cc(C(F)F)on4)C3)N2C1=O)c1cc2cc(C(F)P(=O)(O)O)ccc2s1 (some centres unmarked): 6.00 to 7.00
- O=C(N[C@H]1C[C@@H]2C[C@@H]2C[C@H]2CC[C@@H](C(=O)N3CC(Cc4cncnc4)C3)N2C1=O)c1cc2cc(CP(=O)(O)O)ccc2s1: 5.00 to 6.00
- Cn1ccnc1N1C[C@H](NC(=O)[C@@H]2CC[C@@H]3C[C@H]4C[C@H]4C[C@H](NC(=O)c4cc5cc(C(F)P(=O)(O)O)ccc5s4)C(=O)N32)[C@@H](F)C1 (some centres unmarked): > 7.00

Entry COCC1(c2ccccc2)CN(C(=O)[C@@H]2CC[C@@H]3C[C@@H]4C[C@@H]4C[C@H](NC(=O)c4cc5cc(C(F)(F)P(=O)(O)O)ccc5s4)C(=O)N32)C1 has what pIC50? > 7.00

---

assayed.target: UniProt P42226
experimental.protocol: MSD-pSTAT-PBMC Assay (pSTAT6, IL-4 stimulated)
condition.context: compound 3 hrs, then 1 ng/mL IL-4 for 10 min
For each record, write down the corresponding IC50.

Some compounds with known IC50 results, for comparison:
- CC(C)(C)C(=O)OCOP(=O)(OCOC(=O)C(C)(C)C)C(F)(F)c1ccc2sc(C(=O)N[C@H]3C[C@H]4C[C@H]4C[C@H]4CC[C@@H](C(=O)N5CC(n6ccnc6)C5)N4C3=O)cc2c1: > 3000 nM
- CC(C)(C)C(=O)OCOP(=O)(OCOC(=O)C(C)(C)C)C(F)(F)c1ccc2sc(C(=O)N[C@H]3C[C@H]4C[C@H]4C[C@H]4CC[C@@H](C(=O)N[C@@H]5CCN(c6cccnc6)C5)N4C3=O)cc2c1: > 3000 nM
- CC(C)(C)C(=O)OCOP(=O)(OCOC(=O)C(C)(C)C)C(F)(F)c1ccc2sc(C(=O)N[C@H]3C[C@H]4C[C@H]4C[C@H]4CC[C@@H](C(=O)N5C[C@@H](C#N)[C@H](c6ccccc6)C5)N4C3=O)cc2c1: < 100 nM
- CC(C)(C)C(=O)OCOP(=O)(Cc1ccc2sc(C(=O)N[C@H]3C[C@H]4C[C@H]4C[C@H]4CC[C@@H](C(=O)N5CC(c6ccccn6)C5)N4C3=O)cc2c1)OCOC(=O)C(C)(C)C: 1000 to 3000 nM

// moving on: another record for IC50
Entry CC(C)(C)C(=O)OCOP(=O)(OCOC(=O)C(C)(C)C)C(F)(F)c1ccc2sc(C(=O)N[C@H]3C[C@@H]4C[C@@H]4C[C@H]4CC[C@@H](C(=O)N5CC(N6CCOCC6)C5)N4C3=O)cc2c1 has what IC50? 100 to 1000 nM

The values you see were collected from patent US20250215030A1.
